List of IC50 values.
- System: CEM cells HIV-1 protection, formazan growth assay
- Assay comment: NCI AIDS Antiviral Assay
- Cond: measured here: growth of uninfected CEM cells

1. CSc1ccc(C2OC(=O)c3c2ccc2ccccc32)c(C)c1 (stereo not given) : > 16.2 µM
2. O=c1[nH]c(Nc2cccc(CO)c2)nc2nc[nH]c12 : > 200 µM
3. O=C1c2ccccc2C(=CC=C2c3ccccc3Sc3ccccc32)c2ccccc21 : > 9.12 µM

Problem: Write down the reported IC50 of `O=S(=O)(O)c1ccc(Nc2ccnc3ccccc23)cc1` , test system: CEM cells HIV-1 protection, formazan growth assay.
Result: > 200 µM

Problem: Identify the measured IC50 of C[C@H]1O[C@@H](C(C)(C)C)OC(=O)[C@@H]1C(OC(=O)c1ccccc1)c1cccc2ccccc12 (stereo not given in full) for CEM cells HIV-1 protection, formazan growth assay.
Result: 83.2 µM

Problem: Item CC1CC/C(=C\c2ccc(N(C)C)cc2)C(=O)/C1=C/c1ccc(N(C)C)cc1 (stereo not given) with CEM cells HIV-1 protection, formazan growth assay - IC50?
Result: 60.3 µM

Problem: Fill in the recorded IC50 for this compound, with CEM cells HIV-1 protection, formazan growth assay as test system: `C(=C\c1ccc2ccccc2n1)/c1cccnc1`
Result: 12 µM

Problem: # query: IC50 | item `CSc1c(C#N)c(N)n(-c2ccc(C)cc2)c(=O)c1C#N` | system: CEM cells HIV-1 protection, formazan growth assay
Result: 74.1 µM

Problem: Return IC50 measured with CEM cells HIV-1 protection, formazan growth assay given this compound: `O=c1oc2ccccc2cc1-n1nnc2cc([N+](=O)[O-])ccc21`
Result: > 8.91 µM

Problem: What value of IC50 on CEM cells HIV-1 protection, formazan growth assay does COC(=O)/C(=N\Nc1nnc(C)n1N)C(C#N)c1ccccc1 (stereo not given) have?
Result: 93.3 µM

Problem: API: value(readout=IC50, system=CEM cells HIV-1 protection, formazan growth assay) for record CC(O)=NC(Cc1ccc2ccccc2c1)C(O)=NC(Cc1ccc(Cl)cc1)C(O)=NC(Cc1c[nH]c2ccccc12)C(O)=NC(CO)C(O)=NC(Cc1ccc(O)cc1)C(O)=NC(CCCN=C(N)N)C(O)=NC(CC(C)C)C(O)=NC(CCCN=C(N)N)C(=O)N1CCCC1C(O)=NC(C)C(=N)O (stereo not given)
Result: > 87.1 µM

Problem: Give CEM cells HIV-1 protection, formazan growth assay IC50 for `c1ccc2c(c1)CCc1c(-c3noc4c3CCc3ccccc3-4)noc1-2`
Result: > 148 µM

Problem: Form field - read-out: IC50; system: CEM cells HIV-1 protection, formazan growth assay; submitted item: CC(C)C1CNC(=O)C2(CCCO2)CNC(C(C)C)CNC(=O)C2(CCCO2)CN1 (stereo not given)
Result: > 295 µM

Problem: Please provide the recorded IC50 for `Cc1ccsc1/C=N/Nc1cc(C)c2ccccc2n1` , tested on CEM cells HIV-1 protection, formazan growth assay.
Result: 5.37 µM

====

- System: CEM cells HIV-1 protection, formazan growth assay
- Assay comment: NCI AIDS Antiviral Assay
Assay endpoint: EC50

Worked examples, 6 compounds total:
1. COc1cc2nncc(Cl)c2cc1OC : > 95.5 µM
2. O=C(N/C=C(/c1ccccc1)S(=O)Cc1ccccc1)Nc1ccccc1Cl (configuration not stated) : > 501 µM
3. O=C(O)c1ccc2c(c1)C(=O)c1ccccc1C2=O : > 200 µM
4. CCOC(=O)C(=Cn1ccc(=O)[nH]c1=S)C(=O)OCC : > 200 µM
5. CCOC(OCC)/C(C)=N/[N+](C)(C)C : > 200 µM
6. Nc1ccc(Cl)c(-c2nc3ccccc3[nH]2)c1 : > 77.6 µM

Problem: Give CEM cells HIV-1 protection, formazan growth assay EC50 for O=C(O)C12CCC(CC1=O)C2 (configuration not stated)
Result: > 200 µM
